tested on: Trichoderma reesei cellulase composition; test: Nitrogen-containing compound effect(no GH61) on hydrolysis of AVICEL by T. reesei cellulase composition; type: biochemical; details: Example 6; 5 mM compound; 14 mg/ml AVICEL; 1, 3, 5, 7 or 8 days (FIG. 2 white bars)
Quantity Measured: nitrogen-containing compound effect(no GH61)

* CC1(C)CCCC(C)(C)N1[O] | less than 1
* CC(C)=NO | less than 1
